Parameter: Binding Level sample 2 (RU). Scope: all listed entries.
Target: T1, recombinant human OX40L (extracellular domain, R&D Systems) (human, UniProt P23510 51-183)
T1 construct: also called hOX40L; rec. hOX40L
T1 sequence: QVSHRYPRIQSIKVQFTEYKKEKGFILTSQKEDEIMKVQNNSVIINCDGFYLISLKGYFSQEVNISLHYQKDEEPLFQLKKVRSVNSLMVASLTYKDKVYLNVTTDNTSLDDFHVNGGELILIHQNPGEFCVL
Assay: SPR, second injection after competitor OX40L18E09
assay.endpoint: Binding Level sample 2 (RU)

OX40L19A07 (VHH, monovalent Nanobody from E. coli; not shown: C-terminal c-myc and His6 tag) VHH: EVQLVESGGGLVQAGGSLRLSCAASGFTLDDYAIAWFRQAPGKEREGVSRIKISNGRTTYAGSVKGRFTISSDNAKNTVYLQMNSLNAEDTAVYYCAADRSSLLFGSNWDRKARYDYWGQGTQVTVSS	194
OX40L19D08 (VHH, monovalent Nanobody from E. coli; not shown: C-terminal c-myc and His6 tag) VHH: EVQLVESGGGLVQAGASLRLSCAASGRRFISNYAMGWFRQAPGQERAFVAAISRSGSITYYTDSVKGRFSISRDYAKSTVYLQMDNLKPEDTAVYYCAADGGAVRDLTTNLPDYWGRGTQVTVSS	224
OX40L18E09 (VHH, monovalent Nanobody from E. coli; not shown: C-terminal c-myc and His6 tag) VHH: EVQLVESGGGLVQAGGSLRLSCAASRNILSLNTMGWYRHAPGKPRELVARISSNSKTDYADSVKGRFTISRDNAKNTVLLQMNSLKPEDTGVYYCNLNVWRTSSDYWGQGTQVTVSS	195
OX40L01E10 (VHH, monovalent Nanobody from E. coli; not shown: C-terminal c-myc and His6 tag) VHH: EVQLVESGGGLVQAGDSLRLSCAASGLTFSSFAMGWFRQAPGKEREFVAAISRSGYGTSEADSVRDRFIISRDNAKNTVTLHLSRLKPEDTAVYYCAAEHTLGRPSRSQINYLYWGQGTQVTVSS	176

# credit: patent US20150218281A1
